The reader will find reported GI50 values listed item by item below.
# Tested on: OVCAR-5
# ASSAY_INFO: NCI tumour cell line growth inhibition, 48 h
Activity calls are given as the source filed them. Rule as the data show it: active = GI50 up to about 1.1 µM and inactive = higher.
OBSERVABLE: GI50

COMPOUND | RESULT_VALUE
O=C(CCCN1CCC2(CC1)CC(c1ccccc1)OC2=O)c1ccc(F)cc1 (stereo unspecified) | 45.9 µM (inactive)
OCC(O)C(OC1OC(CO)C(O)C(O)C1O)c1nn(-c2ccc(F)cc2)c2nc3cc(Cl)c(Cl)cc3cc12 (stereo unspecified) | > 100 µM (inactive)
Cc1cc(NS(=O)(=O)c2ccc(Nc3c4ccccc4nc4ccc(C(=O)Nc5ccc(S(=O)(=O)N=C(N)N)cc5)cc34)cc2)no1 | > 100 µM (inactive)
O/N=C1/CC2(N3CCOCC3)C3CC/C(=N\O)C2CC1(Cc1ccccc1)C3 (stereo unspecified) | > 100 µM (inactive)
c1ccc(COCC2OC3c4ccccc4COC3C2OCc2ccccc2)cc1 (stereo unspecified) | > 100 µM (inactive)
CC(=O)O[C@H]1CC[C@@]2(C)C(=CC[C@H]3[C@@H]4C[C@H](N5CCCC5)[C@H](OC(C)=O)[C@@]4(C)CC[C@@H]32)C1 | > 100 µM (inactive)

###

The reader will find reported GI50 values listed item by item below.
# Tested on: XF498
# ASSAY_INFO: NCI tumour cell line growth inhibition, 48 h
Calls of active or inactive are those of the source. Rule as the data show it: active = GI50 up to about 1.1 µM and inactive = higher.
OBSERVABLE: GI50

COMPOUND | OBSERVABLE | RESULT_VALUE
COC(=O)C(Cc1nc2ccc(Cl)cc2nc1O)/C(=N/O)C(=O)Nc1cccc(Cl)c1C (stereo unspecified) | GI50 | > 100 µM (inactive)
COC(=O)C(=O)C(C(=O)C(=O)Nc1ccc(C)cc1C)c1nc2ccccc2nc1O (stereo unspecified) | GI50 | 58.3 µM (inactive)
CC(=O)CCC#Cc1ccccc1C(=O)C(C)=[N+]=[N-] | GI50 | 20.5 µM (inactive)
Cc1cccc(C)c1NC(=O)CCC(=O)CC(=O)C(C)C | GI50 | > 100 µM (inactive)
O=C(Nc1ccccc1)n1cc(-c2ccccn2)c(N2CCOCC2)n1 | GI50 | 9.23 µM (inactive)
CC1OC(n2cc(C(F)(F)F)c(=O)[nH]c2=O)C=CC1=O (stereo unspecified) | GI50 | 16.6 µM (inactive)

###

# Test system: UO-31
# ASSAY_INFO: NCI tumour cell line growth inhibition, 48 h
Active and inactive are the calls of the source. Rule as the data show it: active = GI50 up to about 1.1 µM and inactive = higher.
Outcomes: active, inactive

COMPOUND | QUALITATIVE_LABEL
N#CC1=C(N)OC2=C(CSc3ccccc32)C1c1ccc(Br)cc1 (stereo unspecified) | inactive
CCc1cccc(C)c1NC(=O)C1=C(C)NC(C)=C(C(=O)Nc2c(C)cccc2CC)C1c1ccc([N+](=O)[O-])cc1 | inactive
CCCOCN1COCN/C1=N\C#N | inactive
C/C1=C/C(C)CC(C)OC(=O)C(C)NC(=O)C(Cc2ccc(O)c(I)c2)N(C)C(=O)CNC(=O)C(C)C1 (stereo unspecified) | active
COc1cc(OC)c2c(c1)OC(c1cccnc1)C(c1ccccc1)C2=O (stereo unspecified) | inactive
CC1=CC(C)C(C)N(CCNS(=O)(=O)c2ccc(C)cc2)c2ccccc21 (stereo unspecified) | inactive

###

# System: MCF7
# ASSAY_INFO: NCI tumour cell line growth inhibition, 48 h
Activity calls are given as the source filed them. Rule as the data show it: active = GI50 up to about 1.1 µM and inactive = higher.

COMPOUND | GI50
CC(C)C1=CC23CCC4C(C)(C(=O)O)CCCC4(C)C2CC1C1C(=O)N(c2ccc(C(=O)O)cc2)C(=O)C13 (configuration not stated) | > 100 µM (inactive)
Cc1cccc2c1[nH]c1[nH]c(=O)[nH]c(=O)c12 | > 100 µM (inactive)
Oc1c2c(nc3cc4c(cc13)OCO4)-c1ccccc1CCC2 | 26.5 µM (inactive)
c1ccc(CSCCC(SCc2ccccc2)SCc2ccccc2)cc1 | > 10 µM (inactive)
COc1ccc(C2OC(c3ccncc3)=NN2C)cc1F (configuration not stated) | > 100 µM (inactive)
COc1cc2c(cc1OC)C1=CCC(c3ccccc3)[N+]1(C)CC2 (configuration not stated) | > 100 µM (inactive)
Cc1cc(C)c2c(n1)S(=O)(=O)N(CCCN1CCN(c3cccc(Cl)c3)CC1)C(C(=O)c1ccccc1)=C2O | 29.8 µM (inactive)

###

# System: COLO 205
# ASSAY_INFO: NCI tumour cell line growth inhibition, 48 h
Activity calls are given as the source filed them. Cut-off read from the data, not from the text of the source: active = GI50 up to about 1.1 µM and inactive = higher.

COMPOUND | GI50
COc1cc(C2SC(=N)Nc3c2c(C)nn3C(=O)c2ccc(Cl)cc2)cc(OC)c1OC (centres undefined) | > 10 µM (inactive)
O=C(Nc1ccccc1)n1cc(-c2ccccn2)c(N2CCOCC2)n1 | 5.14 µM (inactive)
O=c1c2c3ccccc3[nH]c2c2cccc3c2n1CCC3 | 54 µM (inactive)
CSc1nc2c(ncn2C2OC(CO)C(O)C(O)C2O)c(=O)[nH]1 (centres undefined) | > 100 µM (inactive)

###

# Tested on: MDA-MB-435
# ASSAY_INFO: NCI tumour cell line growth inhibition, 48 h
Active and inactive are the calls of the source. No stated cut-off is given here; in the data, active = GI50 up to about 1.1 µM and inactive = higher.
The reader will find reported GI50 values listed item by item below.
OBSERVABLE: GI50

COMPOUND | OBSERVABLE | RESULT_VALUE
CN(CCN)[C@H](CSSC[C@@H](c1ccccc1O)N(C)CCN)c1ccccc1O | GI50 | 18 µM (inactive)
N#CC1=C(N)OC2=C(CSc3ccccc32)C1c1ccc(Br)cc1 (stereo not drawn) | GI50 | 2.6 µM (inactive)
Nc1ncc(Cc2ccc3c(c2)OCO3)c(N)n1 | GI50 | > 100 µM (inactive)
O=c1oc2cc(O)ccc2cc1-c1nc2ccccc2o1 | GI50 | 28.2 µM (inactive)
CCCCCCCCCCC1OC([C@@H](O)CC[C@H](O)C2CC[C@@H](CCCCCCCC(O)CC3=CC(C)OC3=O)O2)CCC1O (stereo partly drawn) | GI50 | 7.24 µM (inactive)
Cn1c([C@H](C#N)C(=O)c2cc(O)ccc2[N+](=O)[O-])nc2ccccc21 | GI50 | 9.51 µM (inactive)
COc1ccc(C2=Cc3nc2c(-c2ccccc2)c2ccc([nH]2)c(-c2ccccc2)c2nc(c(-c4ccccc4)c4ccc([nH]4)c3-c3ccccc3)C=C2)cc1 | GI50 | > 100 µM (inactive)
Cc1cc(C)c(S(=O)(=O)N(CCCCCCN)OCCCON(CCCCCCN)S(=O)(=O)c2c(C)cc(C)cc2C)c(C)c1 | GI50 | 2.13 µM (inactive)

###

The reader will find reported GI50 values listed item by item below.
# Test system: SK-MEL-28
# ASSAY_INFO: NCI tumour cell line growth inhibition, 48 h
Active and inactive are the calls of the source. Cut-off read from the data, not from the text of the source: active = GI50 up to about 1.1 µM and inactive = higher.

MOLECULE | GI50
COC(=O)[C@@H]1COC(C(C)(C)C)N1C(=O)C(c1ccccc1)c1ccccc1 (some centres undefined) | > 100 µM (inactive)
COC(=O)[C@@H]1C[C@@H](O)CN1C(=O)c1ccc([N+](=O)[O-])cc1[N+](=O)[O-] | > 100 µM (inactive)
O=C(/N=C(\Nc1ccccc1)SCCS/C(=N/C(=O)c1cccs1)Nc1ccccc1)c1cccs1 | 49.9 µM (inactive)
COc1ccc(CCCNC(=O)c2cc(OC)c(OC)cc2CCO)cc1OC | > 100 µM (inactive)

###

The reader will find reported GI50 values listed item by item below.
# Test system: SF-268
# ASSAY_INFO: NCI tumour cell line growth inhibition, 48 h
Calls of active or inactive are those of the source. No stated cut-off is given here; in the data, active = GI50 up to about 1.1 µM and inactive = higher.

SMILES_NOTATION | GI50
O=C(O)CCCC(=O)Nn1c(Cc2ccc(Cl)cc2)n[nH]c1=O | > 100 µM (inactive)
O=C(O)CN1C=C(C(=O)c2cc3ccccc3n2S(=O)(=O)c2ccccc2)CCC1 | > 100 µM (inactive)
O=C[C@@H](CO)O[C@H](C=O)n1cnc2c(=O)nc[nH]c21 | 431 µM (inactive)
CC[C@H]1[C@@H](C)C=C[C@@H](C)N1S(=O)(=O)c1ccc(C)cc1 | 75 µM (inactive)

###

# System: UACC-257
# ASSAY_INFO: NCI tumour cell line growth inhibition, 48 h
The source made the active and inactive calls. Rule as the data show it: active = GI50 up to about 1.1 µM and inactive = higher.
Outcomes: class 1 = active, class 0 = inactive

MOLECULE | QUALITATIVE_LABEL
C/C1=C/C(C)CC(C)OC(=O)C(C)NC(=O)C(Cc2ccc(O)c(I)c2)N(C)C(=O)CNC(=O)C(C)C1 (configuration not stated) | class 1
Cc1ccc(CNNC(=O)c2cc[n+]([BH2-]C#N)cc2)cc1 | class 0
O=c1oc2cc(O)ccc2cc1-c1nc2ccccc2o1 | class 0
COc1cc(/C=N/NC(=O)c2c(Cl)c(Cl)c(Cl)c(Cl)c2-c2nc3cc(C(=O)c4ccccc4)ccc3[nH]2)ccc1O | class 0
CC1=C(C(=O)Nc2cccc3c2C(=O)NC3=O)CC(C(=O)Nc2cccc3c2C(=O)NC3=O)=C(C)N1 | class 0
COc1ccc(OC)c(C23CCCC(C2)N(C)CC3)c1 (configuration not stated) | class 0
CC1=NN(c2cccc(Cl)c2)C(=N/c2nc3ccccc3s2)/C1=C\C=C\c1ccccc1 | class 0
Cc1ccccc1NC(=O)C(=O)CC(=O)c1ccc([N+](=O)[O-])cc1 | class 0
CSc1nc(Br)nc2ncn(C3CC(Oc4ccc(C)cc4)C(COc4ccc(C)cc4)O3)c12 (configuration not stated) | class 0
COC(=O)C(CC(C)C)NC(=O)NC12CC3CC(CC(F)(C3)C1)C2 (configuration not stated) | class 0
O=C1CC(Br)c2c(Br)sc(Br)c21 (configuration not stated) | class 0
C[N+](C)(C)CC(=O)N/N=C(\CCC(=O)NCCc1ccccc1)CC(=O)c1ccccc1 | class 0
